- METHOD_DESCRIPTION: in vivo
- CONDITIONS: mouse, in vivo, po
RESULT_TYPE: LD50 at 24 h

Entry `CC1=CC(=O)CCC1` has what LD50 at 24 h? < 2000 mg/kg

---

- Tested on: male Swiss-Webster mice
- METHOD_DESCRIPTION: in vivo
- CONDITIONS: oral, in words
RESULT_TYPE: Acute toxicity for mice

CC(C)=CCC[C@@](C)(O)[C@H]1CCC(C)=CC1=O (relative stereo) [synthetic hernandulcin] | non-toxic
CC1=CC(=O)CCC1 [3-Methyl-2-cyclohexen-1-one, 3-methyl-2-cyclohexen-1-one] | essentially non-toxic
CC(C)=CCC[C@@](C)(O)[C@H]1CCC(C)=CC1=O (relative stereo) [Hernandulcin] | non-toxic
CC(=O)CCC=C(C)C [6-Methyl-5-hepten-2-one, 6-methyl-5-hepten-2-one] | essentially non-toxic
